Target: human MC4R (Homo sapiens, UniProt P32245)
Construct: host or cells: HEK-293 cells stably expressing the GScAMP22F split-luciferase cAMP sensor and hMC4R, G418 selection
Sequence (P32245 whole entry): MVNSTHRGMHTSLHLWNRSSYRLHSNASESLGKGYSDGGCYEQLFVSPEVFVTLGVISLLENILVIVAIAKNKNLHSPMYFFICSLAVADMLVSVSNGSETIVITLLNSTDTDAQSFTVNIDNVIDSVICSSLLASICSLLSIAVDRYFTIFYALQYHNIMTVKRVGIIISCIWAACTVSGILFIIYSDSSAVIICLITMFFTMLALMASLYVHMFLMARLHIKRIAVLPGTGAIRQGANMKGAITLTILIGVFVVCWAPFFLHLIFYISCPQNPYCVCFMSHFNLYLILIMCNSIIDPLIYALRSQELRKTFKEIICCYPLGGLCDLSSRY
Assay: split-luciferase cAMP sensor assay, agonist mode (measurement window 1), hMC4R
Type: cell-based
Conditions: % maximal activation, agonist mode; read-out: MC4R cAMP % max activation
Positions of bridges follow the written chain, without caps; N, C: chain ends. Non-standard residues stand in square brackets, D forms with d. Residues, ends and D or L forms follow the SMILES beside them. Cit = NC(=O)NCCC[C@H](N)C(=O)O; Nle = CCCC[C@H](N)C(=O)O
Entries annotated with measured Emax
Test readout: Emax (%)

>>> recorded_result("CC(=O)N[C@@H](CCCNC(=N)N)C(=O)N[C@H]1CSSC[C@@H](C(N)=O)NC(=O)[C@@H](Cc2c[nH]c3ccccc23)NC(=O)[C@H](CCCNC(=N)N)NC(=O)[C@@H](Cc2ccccc2)NC(=O)[C@H](Cc2c[nH]cn2)NC(=O)[C@@H](C)NC1=O [CTX-1262]")
88
>>> recorded_result("CCCC[C@H](NC(=O)[C@H](CCCNC(=N)N)NC(C)=O)C(=O)N[C@H]1CSSC[C@@H](C(N)=O)NC(=O)[C@@H](Cc2c[nH]c3ccccc23)NC(=O)[C@H](CCCNC(=N)N)NC(=O)[C@@H](Cc2ccccc2)NC(=O)[C@H](CCCNC(N)=O)NC1=O [CTX-1608] (Ac-R[Nle]C[Cit][dF]R[dW]C-NH2; disulfide 3-8 (inferred))")
79
